Molecular target: T1, TFAM (no MTS) (Homo sapiens, UniProt Q00059 43-246)
T1 sequence: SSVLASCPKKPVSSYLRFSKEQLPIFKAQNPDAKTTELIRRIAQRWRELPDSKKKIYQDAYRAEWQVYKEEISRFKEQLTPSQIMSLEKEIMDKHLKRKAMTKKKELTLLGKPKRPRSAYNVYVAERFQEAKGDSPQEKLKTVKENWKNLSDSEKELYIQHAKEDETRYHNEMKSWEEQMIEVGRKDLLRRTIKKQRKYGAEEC
Assay: fluorescence anisotropy; Hill n 2.84±0.14; FP: 25 mM HEPES, 10 mM Mg(OAc)2, 25 mM NaOAc, 75 mM KOAc, pH 7.5, 1 nM DNA, TFAM 0-15 nM diluted on ice (read temperature not stated); AFM oligos: on ice, 2 min
Conditions: protein: recombinant; label: 5' 6-FAM on strand 1; blunt

Binder | Units | Kd
ND6_87 (dsDNA) DNA 1: TTCCTACACTATTAAAGTTTACCACAACCACCA DNA 2: TGGTGGTTGTGGTAAACTTTAATAGTGTAGGAA | nM | 5.2

Data credit: paper PMC13016609
